Target: T1, RXFP1 receptor (UniProt Q9HBX9 1-757, limits assumed)
T1 sequence (looked up): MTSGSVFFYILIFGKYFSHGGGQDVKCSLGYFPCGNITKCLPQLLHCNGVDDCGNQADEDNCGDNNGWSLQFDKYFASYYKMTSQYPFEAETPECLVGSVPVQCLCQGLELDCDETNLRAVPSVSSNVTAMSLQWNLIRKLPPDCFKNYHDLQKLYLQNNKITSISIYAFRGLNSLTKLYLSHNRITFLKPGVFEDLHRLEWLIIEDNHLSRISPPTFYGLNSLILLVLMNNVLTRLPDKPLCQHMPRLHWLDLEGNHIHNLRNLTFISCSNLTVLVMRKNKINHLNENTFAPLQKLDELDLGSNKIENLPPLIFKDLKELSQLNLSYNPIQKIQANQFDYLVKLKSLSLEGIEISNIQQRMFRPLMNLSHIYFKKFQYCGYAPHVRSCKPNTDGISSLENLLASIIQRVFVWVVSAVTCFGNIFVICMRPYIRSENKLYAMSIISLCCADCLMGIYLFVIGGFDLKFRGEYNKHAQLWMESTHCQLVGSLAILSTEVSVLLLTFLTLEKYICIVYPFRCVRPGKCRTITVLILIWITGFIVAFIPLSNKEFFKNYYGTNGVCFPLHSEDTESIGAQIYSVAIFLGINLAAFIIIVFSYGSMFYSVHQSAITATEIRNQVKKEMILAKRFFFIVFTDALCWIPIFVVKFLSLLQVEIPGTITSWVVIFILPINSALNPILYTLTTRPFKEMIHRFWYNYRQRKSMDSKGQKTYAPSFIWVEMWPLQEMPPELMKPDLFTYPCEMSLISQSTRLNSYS
Assay: cell-based or functional assay
*1 amine or outer side, *2 acyl side, *3 side chain or, on linkers, in order; H or OH if unused. Primed or numbered codes have the meaning given here. Side-chain parts run from the residue outwards. [ ]: non-standard residue; d: D form. The star is where a group is joined. γGlu = O=C(O)[C@H](CCC(=O)[*:2])N[*:1]; Pentadecanoyl = CCCCCCCCCCCCCCC(=O)*; Stearoyl = CCCCCCCCCCCCCCCCCC(=O)*; Palmitoyl = CCCCCCCCCCCCCCCC(=O)*; αMeK = C[C@](N)(CCCCN)C(=O)O; Nle = CCCC[C@H](N)C(=O)O; PEG2′ = PEG2 spacer unit; Aib = CC(C)(N)C(=O)O
readout: EMax, OVCAR 5 cells (cAMP)
Please report the result as a number followed by the unit.

What value of EMax, OVCAR 5 cells (cAMP) has been recorded for this entry: Ac-LEGREKVRAK(Ac)I[Aib][Aib]EGQSTFS[αMeK]RAK(Ac)[PEG2′][PEG2′][PEG2′][PEG2′]K([γGlu-γGlu-γGlu-γGlu-Pentadecanoyl])-NH2 [peptide of SEQ ID NO: 182]
99%

What value of EMax, OVCAR 5 cells (cAMP) has been recorded for this entry: Ac-LEGREKVRAQI[Aib][Aib]EG[Nle]STWS[Aib]RK[PEG2′]K([PEG2′-γGlu-γGlu-γGlu-Palmitoyl])-NH2 [peptide of SEQ ID NO: 12]
76%

What value of EMax, OVCAR 5 cells (cAMP) has been recorded for this entry: Ac-LEGREKVRAK(Ac)I[Aib][Aib]EGQSTWS[Aib]RKKK([PEG2′-PEG2′-PEG2′-γGlu-γGlu-γGlu-γGlu-Stearoyl])-NH2 [peptide of SEQ ID NO: 115]
93%

What value of EMax, OVCAR 5 cells (cAMP) has been recorded for this entry: Ac-LEGREKVRAK(Ac)I[Aib][Aib]EG[Nle]STFS[Aib]RKK(Ac)K([PEG2′-PEG2′-PEG2′-PEG2′-γGlu-γGlu-γGlu-Palmitoyl])-NH2 [peptide of SEQ ID NO: 153]
89%
